# Tested on: Semliki Forest virus
# TEST DESCRIPTION: Antiviral activity against Semliki forest virus infected in african green monkey Vero cells assessed as inhibition of virus-induced cytopathic effect incubated for 6 to 7 days by MTS assay
# Format: functional, organism-based
For each entry below, report its EC50 value.

Here is how some molecules turned out for EC50.
- MOLECULE: "CCCCCCCCCCCCCC(=O)O[C@@H]1[C@@H](C)[C@@]2(O)[C@@H](C=C(CO)C[C@]3(O)C(=O)C(C)=C[C@@H]23)[C@@H]2C(C)(C)[C@]12OC(C)=O [PHORBOL MYRISTATE ACETATE]"
  EC50: "> 162 µM"
- MOLECULE: "CC1=C[C@H]2[C@@]3(O)[C@H](C)[C@@H](O)[C@]4(O)[C@H]([C@@H]3C=C(CO)C[C@]2(O)C1=O)C4(C)C [PHORBOL]"
  EC50: "> 274 µM"
- MOLECULE: "CCN(CC)CCCC(C)Nc1ccnc2cc(Cl)ccc12 (centres undefined) [CHLOROQUINE]"
  EC50: "14 µM"

Please look at the following molecule next.
Q) Given the molecule CC(=O)O[C@@]12C[C@@H](C)[C@@]3(O)[C@@H](C=C(CO)C[C@]4(O)C(=O)C(C)=C[C@@H]34)[C@@H]1C2(C)C [PROSTRATIN] , what is its reported EC50?
A) > 256 µM

====

# TEST DESCRIPTION: Cytotoxicity against african green monkey Vero cells by MTS assay
# Type: cell-based
# REPORTED CONDITIONS: chlorocebus sabaeus
READOUT LABEL: CC50 (µM)
Give bare numbers, in µM.

- MOLECULE: "CCCCCCCCCCCCCC(=O)O[C@@H]1[C@@H](C)[C@@]2(O)[C@@H](C=C(CO)C[C@]3(O)C(=O)C(C)=C[C@@H]23)[C@@H]2C(C)(C)[C@]12OC(C)=O [PHORBOL MYRISTATE ACETATE]"
  CC50, µM: 5.7

Provide reported CC50 for each item, in the same order as listed.
1. CC(=O)O[C@@]12C[C@@H](C)[C@@]3(O)[C@@H](C=C(CO)C[C@]4(O)C(=O)C(C)=C[C@@H]34)[C@@H]1C2(C)C [PROSTRATIN]
2. CCN(CC)CCCC(C)Nc1ccnc2cc(Cl)ccc12 (stereo unspecified) [CHLOROQUINE]

A)
79
89

Q) Given the molecule `CCCCCCCCCCCCCC(=O)O[C@@H]1[C@@H](C)[C@@]2(O)[C@@H](C=C(CO)C[C@@]3(O)C(=O)C(C)=C[C@@H]23)[C@@H]2C(C)(C)[C@]12OC(C)=O` , what is its reported CC50?
A) 5.3

====

# TEST DESCRIPTION: Selectivity index, ratio of CC50 for african green monkey Vero cells to EC50 for Chikungunya virus 899
# Type: toxicity, cell-based
# REPORTED CONDITIONS: read-out: Ratio CC50/EC50
For each entry below, report its selectivity ratio value.
Numbers only.

Here is how some compounds turned out for selectivity ratio.
- COMPOUND: "CCCCCCCCCCCCCC(=O)O[C@@H]1[C@@H](C)[C@@]2(O)[C@@H](C=C(CO)C[C@@]3(O)C(=O)C(C)=C[C@@H]23)[C@@H]2C(C)(C)[C@]12OC(C)=O"
  selectivity ratio: 1.9
- COMPOUND: "CC(=O)O[C@@]12C[C@@H](C)[C@@]3(O)[C@@H](C=C(CO)C[C@]4(O)C(=O)C(C)=C[C@@H]34)[C@@H]1C2(C)C [PROSTRATIN]"
  selectivity ratio: 30.3

Please look at the following compound next.
Q) Given the compound CCCCCCCCCCCCCC(=O)O[C@@H]1[C@@H](C)[C@@]2(O)[C@@H](C=C(CO)C[C@]3(O)C(=O)C(C)=C[C@@H]23)[C@@H]2C(C)(C)[C@]12OC(C)=O [PHORBOL MYRISTATE ACETATE] , what is its reported selectivity ratio?
A) 1960
